Hello, the source for this data is the supplement of paper PMC7877785, in case you need it.

assay: self-splicing fitness, log relative to wild type (ln ratio); higher = more splicing; Tetrahymena group I intron in knt gene, E. coli kanamycin selection, DiMSum; sequences stand for … in CUCUCU…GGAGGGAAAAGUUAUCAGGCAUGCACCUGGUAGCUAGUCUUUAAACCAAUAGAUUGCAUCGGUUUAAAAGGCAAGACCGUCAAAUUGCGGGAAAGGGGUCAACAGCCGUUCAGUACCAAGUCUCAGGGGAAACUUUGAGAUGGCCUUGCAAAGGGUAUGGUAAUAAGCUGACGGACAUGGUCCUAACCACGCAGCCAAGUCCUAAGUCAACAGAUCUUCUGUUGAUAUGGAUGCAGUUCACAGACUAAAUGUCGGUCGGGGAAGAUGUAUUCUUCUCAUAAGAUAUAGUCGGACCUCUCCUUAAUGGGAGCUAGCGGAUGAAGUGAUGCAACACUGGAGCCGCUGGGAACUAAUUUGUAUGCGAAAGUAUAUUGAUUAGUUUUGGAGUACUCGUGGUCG; settings: 37 °C;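 note: selection with 25 µg/mL kanamycin versus none on LB agar overnight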
Quick rule: self-splicing fitness (ln) of at least -1 means true (1), below that means false (0).

Quick check: does `GUGUAGCAAUAUUACGACCA` have self-splicing fitness (ln) greater than or equal to -1? true (1)

Quick check: does `CAAGAGCAAUAUUACGUAGG` have self-splicing fitness (ln) greater than or equal to -1? false (0)

Quick check: does `AAGCAGCAAUAUUACGAUCA` have self-splicing fitness (ln) greater than or equal to -1? true (1)
